ASSAY_TARGET: T1, Mouse Id1: Histidine (mouse, UniProt P20067-2 1-148, limits assumed)
T1 construct: Fusion protein made in E. coli from vector pGW07; also called m-Id1-His; not shown: His tag
T1 sequence (looked up): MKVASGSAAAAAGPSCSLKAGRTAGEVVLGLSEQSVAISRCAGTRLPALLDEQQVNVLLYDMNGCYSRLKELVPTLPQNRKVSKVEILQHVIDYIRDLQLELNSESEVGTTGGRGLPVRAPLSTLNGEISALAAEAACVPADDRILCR
ASSAY_NAME: ELISA, Ab 0.010 µg/ml
Procedure: The rabbit monoclonal anti-human Id3 (clone #3-3) and the rabbit monoclonal anti-mouse/human Id3 (clones #6-1, 16-1, 17-3, and 42-1) produced in Example 6 were tested reactivity against the following antigens: mouse Id1:His, human Id1:His, mouse Id2:His, human Id2:His, mouse Id3:His, human Id3:His, mouse Id4:His, human Id4:His and GST. 1. […]
Exercise: state measured A450 for each of the binders provided.
# unit: A450 | format: bare number

Query string: Name the reported A450 value associated with the binder rabbit monoclonal anti-human Id3, clone #BCH-4/#3-3 (antibody, V domains shown, Rabbit IgG from a rabbit hybridoma; also called h Id3 MoAb 3-3) VH: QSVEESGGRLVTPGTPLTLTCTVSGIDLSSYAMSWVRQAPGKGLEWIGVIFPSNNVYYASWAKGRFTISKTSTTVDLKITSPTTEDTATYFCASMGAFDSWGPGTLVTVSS VL: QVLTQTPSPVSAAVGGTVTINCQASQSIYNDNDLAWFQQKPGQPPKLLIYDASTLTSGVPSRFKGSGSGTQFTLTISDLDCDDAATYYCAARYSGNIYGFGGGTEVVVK
Result string: 0.047

Query string: How about this binder: rabbit monoclonal anti-mouse/human Id3, clone #BCH-4/#16-1 (antibody, V domains shown, Rabbit IgG from a rabbit hybridoma; also called m/h Id3 MoAb 16-1) VH: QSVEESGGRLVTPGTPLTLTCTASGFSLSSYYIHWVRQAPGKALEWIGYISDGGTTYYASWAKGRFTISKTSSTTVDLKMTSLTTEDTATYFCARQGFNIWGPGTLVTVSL VL: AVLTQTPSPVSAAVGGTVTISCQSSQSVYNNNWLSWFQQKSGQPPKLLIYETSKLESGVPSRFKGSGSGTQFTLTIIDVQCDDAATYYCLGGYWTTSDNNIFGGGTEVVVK
Result string: 0.05

Query string: // repeat for rabbit monoclonal anti-mouse/human Id3, clone #BCH-4/#17-3 (antibody, V domains shown, Rabbit IgG from a rabbit hybridoma; also called m/h Id3 MoAb 17-3; BCH-3/#17-3) VH: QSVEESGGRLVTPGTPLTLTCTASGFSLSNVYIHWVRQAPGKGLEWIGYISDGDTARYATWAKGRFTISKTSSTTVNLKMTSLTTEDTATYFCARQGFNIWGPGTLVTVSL VL: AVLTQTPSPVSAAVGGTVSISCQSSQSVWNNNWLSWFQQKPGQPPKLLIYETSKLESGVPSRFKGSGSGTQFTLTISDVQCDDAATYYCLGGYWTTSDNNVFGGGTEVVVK and report
Result string: 0.047
